# Test system: RARa homodimer (NR concentration 270 nM)
# method-notes: PBM binding z-score (relative to random genomic background probes); higher = stronger binding; sequences stand for … in GC…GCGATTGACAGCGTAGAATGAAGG
property-measured: PBM binding z-score
The response must contain the number and no unit.

Consider the following illustrative entries.
In [3]: df
Out[3]:
               macromolecule_sequence  reported_measurement
0  CCGAGTAGGTTATGGGACATTCAGGCAACGGTGA                 0.595
1  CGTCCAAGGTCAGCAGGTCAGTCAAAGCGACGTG                  0.95

Incoming: Item `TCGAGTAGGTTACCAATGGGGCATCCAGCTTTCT` has what recorded PBM binding z-score?
Outgoing: -1.07

Incoming: Reported PBM binding z-score, sequence `GCTTGTAGATCAATGTTAAGAAAGACTAAGCTAA` : ____
Outgoing: -0.306
